Reference source for all entries: paper PMC6364417

- Test system: IGR37-XP cells (Vemurafenib-resistant)
- MEASUREMENT_DESCRIPTION: Kinase inhibitor library screening, PrestoBlue cell viability, 1 or 10 μM, 72 h
- ASSAY_CONTEXT: Homo sapiens, IGR-37, 72 h, read-out: cell viability, IGR37 XP, 1μΜ
Collected viability at 1 µM values appear next to each entry.
MEASURE: viability at 1 µM

>>> assay_result("O=C1Nc2ccccc2/C1=C1/Nc2ccccc2C1=O")
"95.7%"
>>> assay_result("CCS(=O)(=O)N1CC(CC#N)(n2cc(-c3ncnc4[nH]ccc34)cn2)C1")
"96.5%"
>>> assay_result("C[C@H](NC(=O)/C(C#N)=C/c1cccc(Br)n1)c1ccccc1")
"92.4%"
>>> assay_result("Cc1cc(Nc2nc(N[C@@H](C)c3ccc(F)cc3)c(C#N)cc2F)[nH]n1")
"81.1%"
>>> assay_result("Oc1cccc(-c2nc(N3CCOCC3)c3oc4ncccc4c3n2)c1")
"80.5%"
>>> assay_result("N#CCNC(=O)c1ccc(-c2ccnc(Nc3ccc(N4CCOCC4)cc3)n2)cc1")
"106%"
>>> assay_result("Cn1cnc2c(F)c(Nc3ccc(Br)cc3Cl)c(C(=O)NOCCO)cc21 [AZD6244 (Selumetinib)]")
"83.3%"
>>> assay_result("Cn1c(=O)c(F)c(Nc2ccc(I)cc2F)c2c(=O)n(C[C@@H](O)CO)cnc21")
"52.9%"
>>> assay_result("O=c1sn(-c2cccc3ccccc23)c(=O)n1Cc1ccccc1")
"96.4%"
